- MEASUREMENT DESCRIPTION: In vitro cytotoxicity on Vero cells
- Assay type: cell-based
- EXPERIMENTAL SETUP: monkey
REPORTED METRIC: cytotoxicity (%)
Give bare numbers, in %.

Query string: What measured cytotoxicity goes with COc1ccc2c(C(N)CN)c[nH]c2c1 (stereo not shown) ?
Result string: 27

* * *

For each record, write down the corresponding cytotoxicity.
- MEASUREMENT DESCRIPTION: In vitro cytotoxicity on MCF7 cells
- Format: cell-based
- EXPERIMENTAL SETUP: human, MCF7 cells (breast carcinoma); concentration of 10^−5 M; read-out: Average cytotoxicity (% inhibition), MCF7 cells
I'd appreciate it if you wrote the number followed by its unit.

Look over these answered cases.
COc1ccc2[nH]cc(C(CNC(=O)OC(C)(C)C)N(O)Cc3ccccc3)c2c1 (stereo not drawn) [Compound (7)]	9.7%
CC(C)(C)OC(=O)NCC(c1c[nH]c2ccc(Br)cc12)/[N+]([O-])=C/c1ccccc1 (stereo not drawn) [Compound (20 bis)]	23.3%

Query string: What measured cytotoxicity goes with CC(C)(C)OC(=O)NCC(c1c[nH]c2ccccc12)N(O)Cc1ccccc1 (stereo not drawn) [Compound (6)] ?
Result string: 13.1%

* * *

- MEASUREMENT DESCRIPTION: in vitro
- Assay type: cell-based
- EXPERIMENTAL SETUP: human
REPORTED METRIC: cytotoxicity (%)
One number for each entry, in %.

Look over these answered cases.
COc1ccc2[nH]cc(C(CNC(=O)OC(C)(C)C)N(O)Cc3ccccc3)c2c1 (stereo not drawn) [Compound (7)]	10.1
CC(C)(C)OC(=O)NCC(c1c[nH]c2ccccc12)N(O)Cc1ccccc1 (stereo not drawn) [Compound (6)]	16

Now let's try a different one.
Query string: What measured cytotoxicity goes with CC(C)(C)OC(=O)NCC(c1c[nH]c2ccc(Br)cc12)/[N+]([O-])=C/c1ccccc1 (stereo not drawn) [Compound (20 bis)] ?
Result string: 38.1
